Quick list: Absorbed dose (AD average) Thyroid per entry.
Experiment: Extrapolated human dosimetry (OLINDA/EXM, ICRP-89 phantoms)
Details: ICRP 89 Adult Female, extrapolated
Experimental: To address inter-animal variability, the TIACs for each source organ were calculated from both the mean nTACs and the nTACs obtainend from fitting the mean ± 1 standard deviation (SD) of the normalized time-activity data, providing upper and lower bounds. […] The TIACs, for [177Lu]Lu-DOTAGA.Glu.(FAPI)2 and [177Lu]Lu-DO3A.Glu.(FAPI)2, were determined by time integration of the nTACs. […]
Could you give me the number in mGy/Mbq? Just the number is fine.

What value of Absorbed dose (AD average) Thyroid has been reported for the following compound? N#C[C@@H]1CC(F)(F)CN1C(=O)CNC(=O)c1ccnc2ccc(OCCCCNC(=O)CC[C@H](NC(=O)CCC(C(=O)O)N3CCN(CC(=O)[O-])CCN(CC(=O)[O-])CCN(CC(=O)[O-])CC3)C(=O)NCCCCOc3ccc4nccc(C(=O)NCC(=O)N5CC(F)(F)C[C@H]5C#N)c4c3)cc12.[177Lu+3] (stereo partly shown) [[^177Lu]Lu-DOTAGA.Glu.(FAPI)2]
2.95E-02

***
Give its Absorbed dose (AD average) Thyroid value. Item: N#C[C@@H]1CC(F)(F)CN1C(=O)CNC(=O)c1ccnc2ccc(OCCCCNC(=O)CC[C@H](NC(=O)CCC(C(=O)O)N3CCN(CC(=O)[O-])CCN(CC(=O)[O-])CCN(CC(=O)[O-])CC3)C(=O)NCCCCOc3ccc4nccc(C(=O)NCC(=O)N5CC(F)(F)C[C@H]5C#N)c4c3)cc12.[161Tb+3] (stereo partly shown) [[^161Tb]Tb-DOTAGA.Glu.(FAPI)2]
4.05E-02

Request the reported Absorbed dose (AD average) Thyroid associated with N#C[C@@H]1CC(F)(F)CN1C(=O)CNC(=O)c1ccnc2ccc(OCCCCNC(=O)CC[C@H](NC(=O)CN3CCN(CC(=O)[O-])CCN(CC(=O)[O-])CCN(CC(=O)[O-])CC3)C(=O)NCCCCOc3ccc4nccc(C(=O)NCC(=O)N5CC(F)(F)C[C@H]5C#N)c4c3)cc12.[177Lu+3] [[^177Lu]Lu-DO3A.Glu.(FAPI)2]
2.64E-02

# get_value(readout='Absorbed dose (AD average) Thyroid', item= N#C[C@@H]1CC(F)(F)CN1C(=O)CNC(=O)c1ccnc2ccc(OCCCCNC(=O)CC[C@H](NC(=O)CN3CCN(CC(=O)[O-])CCN(CC(=O)[O-])CCN(CC(=O)[O-])CC3)C(=O)NCCCCOc3ccc4nccc(C(=O)NCC(=O)N5CC(F)(F)C[C@H]5C#N)c4c3)cc12.[161Tb+3] [[^161Tb]Tb-DO3A.Glu.(FAPI)2] )
3.64E-02
